- procedure_details: ESI positive response factor (isotope-corrected peak area per molar concentration) in SFC/ESI/HRMS (area units per M); higher = higher ionization efficiency;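 further: standards in acetonitrile/water run in triplicate on a zwitterionic HILIC column, CO2–methanol gradient containing 20 mmol/L ammonium acetate, postcolumn makeup flow, Orbitrap full-scan detection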
- measurement_setup: 0.0875 µM
attribute_measured: ESI positive response factor
Give your answer as a number; write no unit.

// lookup ESI positive response factor for `CN1C(C)(C)CC(O)CC1(C)C`
5.02e+17

* * *

- procedure_details: ESI positive response factor (isotope-corrected peak area per molar concentration) in SFC/ESI/HRMS (area units per M); higher = higher ionization efficiency
- measurement_setup: 0.0175 µM
attribute_measured: ESI positive response factor
Please reply with the number alone, leaving off any unit.

Consider the worked cases shown below.
In [3]: df
Out[3]:
                                   compound  recorded_result
0  Cn1cnc2c1c(=O)n(CCCC(=O)O)c(=O)n2C [1-(3-Carboxypropyl)-3,7-dimethyl-xanthin]         1.77e+16
1  CC(CCl)OP(=O)(OC(C)CCl)OC(C)CCl (stereo not drawn) [TCPP]         1.59e+18

Okay, now this compound:
Sample C[N+](C)(C)CCCl [Chlormequate] — what was its ESI positive response factor?
1.55e+17

* * *

Attribute: ESI positive response factor
- procedure_details: ESI positive response factor (isotope-corrected peak area per molar concentration) in SFC/ESI/HRMS (area units per M); higher = higher ionization efficiency
- measurement_setup: 0.244 µM
Please give the numeric answer without any surrounding text.

Record excerpt, results attached:
>>> df
                                   compound  recorded_result
0  NCCCC[C@H](N[C@@H](CCc1ccccc1)C(=O)O)C(=O)N1CCC[C@H]1C(=O)O [Lisinopril]         1.58e+16
1  N[C@@H](Cc1ccc(O)cc1)C(=O)O [L-Tyrosine]         3.05e+15
2  CC(C)(CO)[C@@H](O)C(=O)NCCCO [Panthenol]         6.31e+16

# evaluate next
Requested read-out: ESI positive response factor. Entry: NC(=O)N=C(N)N [Guanylurea]
2.7e+15

* * *

- procedure_details: ESI positive response factor (isotope-corrected peak area per molar concentration) in SFC/ESI/HRMS (area units per M); higher = higher ionization efficiency
- measurement_setup: 0.035 µM
Reported ESI positive response factor values for the following compounds.
I'd appreciate a reply containing only the number, no unit.

// known answers, use as guide
>>> df
                                   compound            attribute_measured  recorded_result
0  CCN[C@H]1C[C@H](C)S(=O)(=O)c2sc(S(N)(=O)=O)cc21 [Dorzolamide]  ESI positive response factor          8.5e+15
1  CC(CCl)OP(=O)(OC(C)CCl)OC(C)CCl (stereo unspecified)  ESI positive response factor         1.21e+18
2                                 Nc1ccccn1  ESI positive response factor         1.33e+16
3                Cn1c(=O)c2c(ncn2C)n(C)c1=O  ESI positive response factor         2.22e+17
4            CN(C)CCC=C1c2ccccc2CCc2ccccc21  ESI positive response factor          4.1e+17

Give the measured ESI positive response factor of `CCOc1nc2cccc(C(=O)O)c2n1Cc1ccc(-c2ccccc2-c2nnn[nH]2)cc1` .
8.14e+16

* * *

- procedure_details: ESI positive response factor (isotope-corrected peak area per molar concentration) in SFC/ESI/HRMS (area units per M); higher = higher ionization efficiency
- measurement_setup: 0.0875 µM
Measured ESI positive response factor by item
Just the number.

>>> df
                          compound  recorded_result
0       CCC1(c2ccccc2)C(=O)NCNC1=O         1.15e+17
1             NC(=O)c1c(Cl)cccc1Cl         2.14e+16
2  Nc1ccc(S(=O)(=O)c2ccc(N)cc2)cc1         8.16e+16

Item `O=S(=O)(O)c1ccc2nc(-c3ccccc3)[nH]c2c1` has what recorded ESI positive response factor?
7.22e+14

Quick one: `CCNc1nc(Cl)nc(NC(C)C)n1`
9.8e+17

// repeat for `COC(=O)N(OC)c1ccccc1COc1ccn(-c2ccc(Cl)cc2)n1` and report
5.45e+17

* * *

- procedure_details: ESI positive response factor (isotope-corrected peak area per molar concentration) in SFC/ESI/HRMS (area units per M); higher = higher ionization efficiency
- measurement_setup: 0.0875 µM
Entries and their ESI positive response factor
Reply with just the number.

In [3]: df
Out[3]:
                                   compound  recorded_result
0  Nc1nc(N)c2nc(CO)cnc2n1 [2,4-Diamino-6-(hydroxymethyl)pteridine]         4.27e+16

May I ask what ESI positive response factor has been recorded for NC(N)=Nc1nc(CSCCC(N)=NS(N)(=O)=O)cs1 [Famotidin] ?
2.45e+16

Another: CCCCC(=O)N(Cc1ccc(-c2ccccc2-c2nn[nH]n2)cc1)C(C(=O)O)C(C)C (centres undefined) [Valsartan]
5.55e+16

Same again, this time with NC(N)=NC(N)=NCCc1ccccc1 [Phenformin]
3.34e+17
